Attribute: inhibition at 10 µM
target: SUMO E1 (Homo sapiens, UniProt Q9UBT2); assay: SUMO E1 inhibition: UBC9-SUMO1 conjugation by SDS gel electrophoresis; format: biochemical; details: 10 uM compound, 60 min preincubation; read-out: SUMO E1 percent inhibition of adduct formation
Sequence (Q9UBT2 whole entry): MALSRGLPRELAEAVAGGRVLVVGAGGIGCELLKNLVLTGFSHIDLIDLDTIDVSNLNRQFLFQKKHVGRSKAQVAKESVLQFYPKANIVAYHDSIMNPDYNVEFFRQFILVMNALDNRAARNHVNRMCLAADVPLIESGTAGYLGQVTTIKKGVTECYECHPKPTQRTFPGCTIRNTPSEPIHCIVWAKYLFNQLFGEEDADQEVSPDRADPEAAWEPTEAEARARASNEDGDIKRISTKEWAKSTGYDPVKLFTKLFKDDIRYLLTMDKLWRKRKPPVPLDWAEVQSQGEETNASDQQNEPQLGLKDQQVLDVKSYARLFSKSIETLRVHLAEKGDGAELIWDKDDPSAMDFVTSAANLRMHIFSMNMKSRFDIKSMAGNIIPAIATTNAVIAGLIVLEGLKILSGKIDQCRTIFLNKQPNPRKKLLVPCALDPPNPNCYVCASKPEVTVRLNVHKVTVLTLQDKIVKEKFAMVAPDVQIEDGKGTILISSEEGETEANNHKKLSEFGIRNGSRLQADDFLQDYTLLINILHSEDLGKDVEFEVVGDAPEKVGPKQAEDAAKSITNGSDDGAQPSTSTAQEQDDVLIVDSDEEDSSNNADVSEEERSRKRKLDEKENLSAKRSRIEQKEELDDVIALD
Sequence (Q9UBE0 whole entry partner): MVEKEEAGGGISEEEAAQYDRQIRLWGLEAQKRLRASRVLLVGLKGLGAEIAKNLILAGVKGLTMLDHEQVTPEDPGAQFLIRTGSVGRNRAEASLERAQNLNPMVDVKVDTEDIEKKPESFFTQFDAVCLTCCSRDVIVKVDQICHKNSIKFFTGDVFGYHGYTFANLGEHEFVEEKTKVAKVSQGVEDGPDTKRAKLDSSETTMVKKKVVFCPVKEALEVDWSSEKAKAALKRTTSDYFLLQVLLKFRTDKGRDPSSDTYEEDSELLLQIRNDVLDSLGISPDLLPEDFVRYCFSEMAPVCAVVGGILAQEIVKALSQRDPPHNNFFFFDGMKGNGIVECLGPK
API: value field is a number in %; no unit string.

compound	tested_target	result_units	inhibition at 10 µM
C=CC(=O)N1Cc2ccccc2[C@@H](c2ccccc2)C1 (stereo in doubt)	SUMO E1 (Homo sapiens, UniProt Q9UBT2)	%	90
C=CC(=O)N1Cc2sc(Br)cc2[C@@H](c2ccccc2C)C1	SUMO E1 (Homo sapiens, UniProt Q9UBT2)	%	100
C=CC(=O)N1Cc2cccc(Br)c2[C@@H](c2ccccc2C)C1	SUMO E1 (Homo sapiens, UniProt Q9UBT2)	%	60
C=CC(=O)N1Cc2cc(Br)ccc2[C@@H](c2ccccc2OC)C1	SUMO E1 (Homo sapiens, UniProt Q9UBT2)	%	60
C=CC(=O)Oc1cccc([C@H]2CN(C(C)=O)Cc3ccccc32)c1	SUMO E1 (Homo sapiens, UniProt Q9UBT2)	%	50
C=CC(=O)N1Cc2cc(Cl)ccc2[C@@H](c2ccccc2)C1	SUMO E1 (Homo sapiens, UniProt Q9UBT2)	%	100
C=CC(=O)N1Cc2cc(Cl)ccc2[C@@H](c2ccccc2C)C1	SUMO E1 (Homo sapiens, UniProt Q9UBT2)	%	100
C=CC(=O)N1Cc2sc(Cl)cc2[C@@H](c2ccccc2)C1	SUMO E1 (Homo sapiens, UniProt Q9UBT2)	%	100

Name the recorded inhibition at 10 µM for C=CC(=O)N1Cc2ccc(Cl)cc2[C@@H](c2ccccc2)C1 .
50

Name the recorded inhibition at 10 µM for C=CC(=O)N1Cc2cc(Br)ccc2[C@@H](c2ccccc2)C1 .
100

Provenance of the data: patent US12398151B2
